Target: Human CXCR3 (N-delta 4) (Homo sapiens, UniProt P49682)
Construct: CD8 leader (N); Flag tag; expressed in transfected cells; membranes prepared
Assay: Human CXCR3 (N-delta 4) scintillation proximity assay (SPA), [125I] IP-10 binding to Ba/F3-hCXCR3 membranes
Details: IC50 rating; 25 pM [125I] IP-10, membranes of Ba/F3 cells expressing human CXCR3 (N-delta 4)
pIC50: −log10 of the molar value.
property_measured: pIC50

The examples below pair each entry with its known result.
CC[C@H]1CN(c2ncc(C(=O)NC[C@@H](C)O)nc2Cl)CCN1C1CCN(C(=O)c2ccc(Cl)nc2N)CC1 [compound 11]    > 7.60
CC[C@H]1CN(c2nc(N)c(C(=O)NCC3(O)CC3)nc2Cl)CCN1C1CCN(C(=O)c2ccc(Cl)nc2N)CC1 [compound 32]    > 7.60

Pending compound:
Record CC[C@H]1CN(c2nc(N)c(C(N)=O)nc2Cl)CCN1C1CCN(Cc2ccc(Cl)c3[nH]c(=O)[nH]c23)CC1 [compound 143] . Reported pIC50: < 7.00

---

Consider the following compounds and their measured pIC50 readings.
Biological target: Human CXCR3 (N-delta 4) (Homo sapiens, UniProt P49682)
Construct: CD8 leader (N); Flag tag; expressed in transfected cells; membranes prepared
Sequence (P49682 5-368 limits assumed): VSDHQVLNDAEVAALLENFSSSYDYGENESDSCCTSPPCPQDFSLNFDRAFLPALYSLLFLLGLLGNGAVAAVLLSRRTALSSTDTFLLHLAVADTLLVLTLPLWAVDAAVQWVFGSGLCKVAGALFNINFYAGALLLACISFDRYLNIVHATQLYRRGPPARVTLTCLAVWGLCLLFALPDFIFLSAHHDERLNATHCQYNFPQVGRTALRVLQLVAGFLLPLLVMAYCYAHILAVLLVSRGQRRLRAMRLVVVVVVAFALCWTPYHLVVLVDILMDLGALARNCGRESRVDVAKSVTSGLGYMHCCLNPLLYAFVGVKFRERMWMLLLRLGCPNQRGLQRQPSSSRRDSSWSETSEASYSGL
Experiment: Human CXCR3 (N-delta 4) scintillation proximity assay (SPA), [125I] IP-10 binding to Ba/F3-hCXCR3 membranes
Conditions: IC50 rating; 25 pM [125I] IP-10, membranes of Ba/F3 cells expressing human CXCR3 (N-delta 4)
pIC50: −log10 of the molar value.

The examples below pair each entry with its known result.
CC[C@H]1CN(c2nc(N)c(C(N)=O)nc2Cl)CCN1C1CCN(C2OC(C(=O)N(C)C)c3cc(Cl)ccc32)CC1 (stereo partly shown) [compound 147]    7.00 to 7.60
CC[C@H]1CN(c2nc(N)c(C(=O)NCCO)nc2Cl)CCN1C1CCN(C(=O)c2ccc(OC)nc2N)CC1 [compound 133]    7.00 to 7.60
CC[C@H]1CN(c2nc(N)c(C(=O)NC(=N)n3cccn3)nc2Cl)CCN1C1CCN(C(=O)c2ccc(Cl)nc2N)CC1 [compound 101]    < 7.00
CC[C@H]1CN(c2nc(N)c(C(=O)NC3CC3)nc2Cl)[C@H](C)CN1C1CCN(C(=O)c2ccc(Cl)nc2N)CC1 [compound 177]    > 7.60
CC[C@H]1CN(c2nc(N)c(C(=O)NCCO)nc2Cl)CCN1C1CCN(Cc2ccc3nccn3c2)CC1 [compound 104]    < 7.00
CC[C@H]1CN(c2nc(N)c(C(=O)NC3CC3)nc2Cl)CCN1C1CCN(Cc2cc(-c3ccccc3)oc2C)CC1 [compound 141]    > 7.60
CC[C@H]1CN(c2ncc(C(N)=O)nc2Cl)CCN1C1CCN(C(=O)c2ccc(Cl)nc2N)CC1 [compound 10]    > 7.60
CC[C@H]1CN(c2ncc(C(=O)NC3CC3)nc2C)CCN1C1CCN(C(=O)c2ccc(Cl)nc2N)CC1 [Compound No. 155]    > 7.60

Record CC[C@H]1CN(c2nc(N)c(C(=O)NNC(C)=O)nc2Cl)CCN1C1CCN(C(=O)c2ccc(Cl)nc2N)CC1 [compound 134] . Reported pIC50: 7.00 to 7.60

Record CC[C@H]1CN(c2nc(N)c(C(=O)NCCO)nc2Cl)CCN1C1CCN(C(=O)c2ccc(C)nc2O)CC1 [compound 103] . Reported pIC50: < 7.00

Record CC[C@H]1CN(c2nc(N)c(C(=O)NC)nc2Cl)CCN1C1CCN(C(=O)c2cnc(C)cn2)CC1 [compound 112] . Reported pIC50: < 7.00

Record CC[C@H]1CN(c2nc(N)c(C(=O)NCCO)nc2Cl)CCN1C1CCN(Cc2ccc(N3CCOCC3)nc2Cl)CC1 [compound 92] . Reported pIC50: < 7.00

Record CC[C@H]1CN(c2nc(N)c(C(=O)NCCO)nc2Cl)CCN1C1CCN(Cc2ccc(Cl)nn2)CC1 [compound 85] . Reported pIC50: < 7.00

---

Consider the following molecules and their measured pIC50 readings.
Target: Human CXCR3 (N-delta 4) (Homo sapiens, UniProt P49682)
Construct: CD8 leader (N); Flag tag; expressed in transfected cells; membranes prepared
Sequence (P49682 5-368 limits assumed): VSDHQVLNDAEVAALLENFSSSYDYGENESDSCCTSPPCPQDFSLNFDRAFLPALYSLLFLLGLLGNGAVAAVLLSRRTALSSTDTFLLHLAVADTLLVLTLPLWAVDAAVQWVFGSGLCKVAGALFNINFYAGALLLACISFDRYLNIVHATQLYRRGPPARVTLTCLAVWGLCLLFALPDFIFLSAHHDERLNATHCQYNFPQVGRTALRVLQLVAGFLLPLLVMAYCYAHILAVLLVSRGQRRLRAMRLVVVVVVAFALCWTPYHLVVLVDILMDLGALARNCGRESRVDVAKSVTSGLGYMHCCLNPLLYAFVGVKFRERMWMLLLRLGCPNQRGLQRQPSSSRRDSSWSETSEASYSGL
Assay: Human CXCR3 (N-delta 4) scintillation proximity assay (SPA), [125I] IP-10 binding to Ba/F3-hCXCR3 membranes
Conditions: IC50 rating; 25 pM [125I] IP-10, membranes of Ba/F3 cells expressing human CXCR3 (N-delta 4)
Text: The inventive compounds can readily be evaluated to determine activity at The CXCR3 receptors by known methods, such as, for example, Development of Human CXCR3 (N-delta 4) Binding Assay. Cloning and Expression of Human CXCR3 (N-delta 4): The DNA encoding human CXCR3 was cloned by PCR using human genomic DNA (Promega, Madison, Wis.) as a template. […]
pIC50: −log10 of the molar value.

The examples below pair each entry with its known result.
CC[C@H]1CN(c2nc(N)c(C(N)=O)nc2Cl)CCN1C1CCN(C(=O)c2ccc(Cl)c3cc[nH]c23)CC1    < 7.00
CC[C@H]1CN(c2nc(N)c(C(=O)NCCCN(C)C)nc2Cl)CCN1C1CCN(C(=O)c2ccc(Cl)nc2N)CC1    < 7.00
CC[C@H]1CN(c2ncc(C(N)=O)nc2C)CCN1C1CCN(C(=O)c2ccc(C)nc2N)CC1    < 7.00

The molecule `CC[C@H]1CN(c2nc(N)c(C(=O)NC(=N)N3CCCC3)nc2Cl)CCN1C1CCN(C(=O)c2ccc(Cl)nc2N)CC1` , tested on Human CXCR3 (N-delta 4) (Homo sapiens, UniProt P49682), showed pIC50 of < 7.00

The molecule `CC[C@H]1CN(c2nc(N)c(C(=O)NN)nc2Cl)CCN1C1CCN(C(=O)c2cc(F)c(N)nc2Cl)CC1` , tested on Human CXCR3 (N-delta 4) (Homo sapiens, UniProt P49682), showed pIC50 of < 7.00

The molecule `CCOC(=O)NCc1nc(Cl)c(N2CCN(C3CCN(C(=O)c4ccc(Cl)nc4N)CC3)[C@@H](CC)C2)nc1N` , tested on Human CXCR3 (N-delta 4) (Homo sapiens, UniProt P49682), showed pIC50 of < 7.00

The molecule `CC[C@H]1CN(c2nc(N)c(C(=O)NC3CC3)nc2Cl)CCN1C1CCN(C(=O)c2cc(F)c(Cl)nc2N)CC1` , tested on Human CXCR3 (N-delta 4) (Homo sapiens, UniProt P49682), showed pIC50 of > 7.60

The molecule `CC[C@H]1CN(c2nc(N)c(C(=O)NCCO)nc2Cl)CCN1C1CCN(C(=O)c2nccnc2N)CC1` , tested on Human CXCR3 (N-delta 4) (Homo sapiens, UniProt P49682), showed pIC50 of < 7.00

The molecule `CC[C@H]1CN(c2nc(N)c(C(=O)N(C)OC)nc2Cl)CCN1C1CCN(C(=O)c2ccc(Cl)nc2N)CC1` , tested on Human CXCR3 (N-delta 4) (Homo sapiens, UniProt P49682), showed pIC50 of < 7.00

The molecule `CC[C@H]1CN(c2nc(NCc3ccc(F)c(F)c3)c(C(=O)OC)nc2Cl)CCN1C1CCN(C(=O)c2ccc(Cl)nc2N)CC1` , tested on Human CXCR3 (N-delta 4) (Homo sapiens, UniProt P49682), showed pIC50 of 7.00 to 7.60

The molecule `CC[C@H]1CN(c2nc(N)c(C(=O)NC3CC3)nc2Cl)CCN1C1CCN(C(=O)c2ccc(Cl)nc2Cl)CC1` , tested on Human CXCR3 (N-delta 4) (Homo sapiens, UniProt P49682), showed pIC50 of > 7.60
